Test system: Plasmodium falciparum
Assay Procedure: Plasmodium falciparum sporozoite viability assay; note: in the data most compounds retested in dose-response had high values
Type: functional, organism-based
In all, about 34,000 compounds went through this assay and about 290 (0.85%) showed an effect of 50% or more. Only a selection was taken, and strong results are over-represented in it overall.
Recorded Percent Effect by entry

{"columns": ["Molecule", "Tested On", "Percent Effect [%]"],
 "data": [
  ["COc1cccc(Nc2nc(N3CCCC3)nc3c2CNCC3)c1.Cl", "Plasmodium falciparum", 4.348],
  ["c1ccc2nc(N3CCOC(Cn4cccn4)C3)cnc2c1 (stereo unspecified)", "Plasmodium falciparum", 7.131],
  ["COc1ccc(-c2cc(C3CCCNC3)ccn2)cc1.Cl (stereo unspecified)", "Plasmodium falciparum", 3.809],
  ["COCC1CC2(CCN(c3cccc(C)n3)CC2)CN1c1ncccn1.O=C(O)C(F)(F)F (stereo unspecified)", "Plasmodium falciparum", -2.7],
  ["COc1cccc(-c2cc(C3CCCNC3)ccn2)c1 (stereo unspecified)", "Plasmodium falciparum", 10.99],
  ["Cc1cc(C)n(C(=O)Cn2nc(C)c(I)c2C)n1", "Plasmodium falciparum", -1.053],
  ["COc1cccc(Nc2nc(-c3ccncc3)nc3c2CNCC3)c1.Cl", "Plasmodium falciparum", 6.202],
  ["CC(NCC(=O)NCC(=O)Nc1ccc(F)cc1)c1cccs1 (stereo unspecified)", "Plasmodium falciparum", 0.1791],
  ["CC(C(=O)N1CCOCC1)n1nc(-c2cccs2)cc(N)c1=O (stereo unspecified)", "Plasmodium falciparum", -6.596],
  ["Cc1cccc(CN2C[C@@H]3CN(C(=O)C4CC=CC4)C[C@@H]3C2=O)n1", "Plasmodium falciparum", -3.24],
  ["CCN(CC)Cc1ccc(C(=O)N2CCCC2Cn2cccn2)o1 (stereo unspecified)", "Plasmodium falciparum", -5.987]
]}
